# Test target: T1, PD-1 on PD-1-expressing 300.19 cells (UniProt Q15116 25-288, limits assumed)
# T1 construct: whole, on cells
# T1 sequence (Q15116 25-288 limits assumed): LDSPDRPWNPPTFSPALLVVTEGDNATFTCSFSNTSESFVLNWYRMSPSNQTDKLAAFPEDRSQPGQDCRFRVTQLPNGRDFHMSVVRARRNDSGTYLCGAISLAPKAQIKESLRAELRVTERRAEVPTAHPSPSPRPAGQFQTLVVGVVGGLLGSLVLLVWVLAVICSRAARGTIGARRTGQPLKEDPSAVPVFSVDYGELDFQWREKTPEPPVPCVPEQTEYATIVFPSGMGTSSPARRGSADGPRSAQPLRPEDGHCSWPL
# Assay summary: rank among the 16 humanized clones in competition binding against labeled murine mAb BAP049, 1st exp. (FIGURE 6A)

Binder: BAP049-hum04 (antibody, human IgG4 S228P, kappa, V domains shown, also called Clone No. 4) VH: EVQLVQSGAEVKKPGESLRISCKGSGYTFTTYWMHWIRQSPSRGLEWLGNIYPGTGGSNFDEKFKNRFTISRDNSKNTLYLQMNSLRAEDTAVYYCTRWTTGTGAYWGQGTTVTVSS VL: EIVLTQSPATLSLSPGERATLSCKSSQSLLDSGNQKNFLTWYQQKPGKAPKLLIYWASTRESGVPSRFSGSGSGTDFTFTISSLQPEDIATYYCQNDYSYPYTFGQGTKVEIKR
Competition Binding 1st exp.: 15
--
Binder: BAP049-hum16 (antibody, human IgG4 S228P, kappa, V domains shown, also called Clone No. 16) VH: EVQLVQSGAEVKKPGESLRISCKGSGYTFTTYWMHWVRQAPGQGLEWMGNIYPGTGGSNFDEKFKNRFTISRDNSKNTLYLQMNSLRAEDTAVYYCTRWTTGTGAYWGQGTTVTVSS VL: EIVLTQSPDFQSVTPKEKVTITCKSSQSLLDSGNQKNFLTWYQQKPGQAPRLLIYWASTRESGVPSRFSGSGSGTDFTFTISSLEAEDAATYYCQNDYSYPYTFGQGTKVEIKR
Competition Binding 1st exp.: 16
--
Binder: BAP049-hum05 (antibody, human IgG4 S228P, kappa, V domains shown, Humanized mAb) VH: EVQLVQSGAEVKKPGESLRISCKGSGYTFTTYWMHWVRQATGQGLEWMGNIYPGTGGSNFDEKFKNRVTITADKSTSTAYMELSSLRSEDTAVYYCTRWTTGTGAYWGQGTTVTVSS VL: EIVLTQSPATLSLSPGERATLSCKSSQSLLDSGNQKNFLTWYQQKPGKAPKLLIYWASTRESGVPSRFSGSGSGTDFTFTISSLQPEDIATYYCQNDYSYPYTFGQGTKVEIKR
Competition Binding 1st exp.: 5
--
Binder: BAP049-hum02 (antibody, human IgG4 S228P, kappa, V domains shown, also called Clone No. 2) VH: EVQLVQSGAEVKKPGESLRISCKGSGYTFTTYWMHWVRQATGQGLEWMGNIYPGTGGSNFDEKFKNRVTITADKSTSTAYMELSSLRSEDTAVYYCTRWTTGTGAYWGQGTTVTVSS VL: DIQMTQSPSSLSASVGDRVTITCKSSQSLLDSGNQKNFLTWYQQKPGQAPRLLIYWASTRESGIPPRFSGSGYGTDFTLTINNIESEDAAYYFCQNDYSYPYTFGQGTKVEIKR
Competition Binding 1st exp.: 3
